Test system: Candida albicans
Test: Antifungal activity against Candida albicans NCIM 3471 by agar plate assay
Type: functional
Overview of reported MIC across a group of molecules:
Kindly format the answer as number then unit.

Some entries whose results are on file:
Req: Report measured MIC; entry is CN1CCC(n2cc(-c3noc(=O)[nH]3)nn2)CC1
Resp: 20 mg/L

Req: Report measured MIC; entry is OC(Cn1cncn1)(Cn1cncn1)c1ccc(F)cc1F [FLUCONAZOLE]
Resp: 5 mg/L

Req: Report measured MIC; entry is CC(C)(C)OC(=O)N1CCC(n2cc(-c3noc(=O)[nH]3)nn2)CC1
Resp: 30 mg/L

Req: Report measured MIC; entry is CC(=O)N1CCC(n2cc(-c3noc(=O)[nH]3)nn2)CC1
Resp: 60 mg/L

Further cases:
Req: Report measured MIC; entry is Clc1ccc(COC(Cn2ccnc2)c2ccc(Cl)cc2Cl)c(Cl)c1 (stereo not given) [MICONAZOLE]
Resp: 25 mg/L
